assayed system: Autotaxin (Homo sapiens, UniProt Q13822)
assay text: Inhibition of human recombinant ATX lysophospholipase activity expressed in insect sf9 cells using FS-3 fluorogenic substrate preincubated for 10 mins measured after 5 and 25 mins by fluorometric analysis
endpoint name: pKi
To interpret pKi, take it as minus log10 of a concentration measured in moles per litre.

IN: Look at this molecule and give its reported pKi. CCCCCCC(=O)Nc1ccc(C(F)P(=O)(O)O)cc1.NC1CCCCC1 (stereo not given)
OUT: 6.08

IN: Fill blank: measured pKi of the molecule CCCCCCC(=O)Nc1ccc(CP(=O)(O)O)cc1.NC1CCCCC1 is ____.
OUT: 6.29

IN: Tell me the measured pKi of CCCCCCCCCC(=O)Nc1ccc(C(O)P(=O)(O)O)cc1.NC1CCCCC1 (stereo not given) , please.
OUT: 7.62

IN: # lookup: pKi of CCCCCCCCCC(=O)Nc1ccc(C(F)P(=O)(O)O)cc1.NC1CCCCC1 (stereo not given)
OUT: 7.14

IN: Could you tell me which pKi is on file for CCCCCCCCCCCCCC(=O)Nc1ccc(C(Br)P(=O)(O)O)cc1.NC1CCCCC1 (stereo not given) ?
OUT: 8.09

IN: Need pKi of CCCCCCCCCCCCCC(=O)Nc1ccc(C(F)P(=O)(O)O)cc1.NC1CCCCC1 (stereo not given) , thanks.
OUT: 8.21

IN: Report pKi for CCCCCCCCCC(=O)Nc1ccc(CP(=O)(O)O)cc1.NC1CCCCC1 please.
OUT: 7.74

IN: Quick one: pKi for CCCCCCCCCCCCCC(=O)Nc1ccc(C(O)P(=O)(O)O)cc1.NC1CCCCC1 (stereo not given) ?
OUT: 7.62

IN: Requested read-out: pKi. Entry: CCCCCCCCCCCCCC(=O)Nc1ccc(CP(=O)(O)O)cc1.NC1CCCCC1
OUT: 8.05

IN: # query: pKi of entry CCCCCCC(=O)Nc1ccc(C(O)P(=O)(O)O)cc1.NC1CCCCC1 (stereo not given)
OUT: 6.00

====

assay text: Aqueous solubility of the compound
Format: physicochemical
condition label: buffer; read-out: solubility
Would you kindly list solubility for each of these compounds?
Just the number in µg/mL, nothing appended.

IN: Looking for the measured solubility of CCCCCCCCCC(=O)Nc1ccc(C(O)P(=O)(O)O)cc1.NC1CCCCC1 (configuration not stated) , can you help?
OUT: 4000

IN: Given CCCCCCCCCCCCCC(=O)Nc1ccc(CP(=O)(O)O)cc1.NC1CCCCC1 , state its recorded solubility.
OUT: 1000

Each recorded value in this set is attributed to ChEMBL document CHEMBL1817542.
